- METHOD_DESCRIPTION: PK Phase (Group 2): plasma concentrations and pharmacokinetics of Compound 18 and its metabolite Compound 4 after once daily ocular instillation of Compound 18 nanosuspension for 7 days
- Format: in vivo, New Zealand white rabbits
- EXPERIMENTAL_SETUP: male, New Zealand white, rabbit, plasma, topical or ocular, 0.8 mg/kg, plasma, Day 1, Compound 18 0.8 mg/kg ocular instillation; animal 207667
Form field: Cmax (one value per entry).
Please reply with the bare figure in ng/mL and do not write the unit itself.

{"CHEM_SMILES": "CCCc1nn(C)c2c(=O)[nH]c(-c3cc(S(=O)(=O)N4CC(CCCO[N+](=O)[O-])C4)ccc3OCC)nc12", "QUANTITY": "Cmax", "VALUE_OBSERVED": 0.171}

Q: # input compound: `CCCc1nn(C)c2c(=O)[nH]c(-c3cc(S(=O)(=O)N4CC(CCCO)C4)ccc3OCC)nc12` ; wanted: its Cmax
A: 1.05

---

- METHOD_DESCRIPTION: TD Phase (Groups 1 and 3): plasma and ocular tissue concentrations and pharmacokinetics of Compound 18 and its metabolite Compound 4 after once daily ocular instillation of Compound 18 nanosuspension for 7 days
- Format: in vivo, New Zealand white rabbits
- EXPERIMENTAL_SETUP: male, New Zealand white, rabbit, plasma, other: ocular instillation, 0.8 mg/kg/day, TD Phase, Group 3, 0.5 h, Mean, BQL set to 0; read-out: Compound 4 Plasma Conc.
QUANTITY: concentration at 0.5 h

Q: Which concentration at 0.5 h is reported for this compound? `CCCc1nn(C)c2c(=O)[nH]c(-c3cc(S(=O)(=O)N4CC(CCCO)C4)ccc3OCC)nc12`
A: 1.02 ng/mL

---

- METHOD_DESCRIPTION: TD Phase (Groups 1 and 3): plasma and ocular tissue concentrations and pharmacokinetics of Compound 18 and its metabolite Compound 4 after once daily ocular instillation of Compound 18 nanosuspension for 7 days
- Type: in vivo, New Zealand white rabbits
- EXPERIMENTAL_SETUP: male, New Zealand white, rabbit, retina, other: ocular instillation (eye drop), 0.798 mg/kg/day, TD Phase, Group 3, 0.5 h, Mean; read-out: Final Compound 18 Retina Conc.
QUANTITY: concentration at 0.5 h (ng/g)
Value expressed in ng/g; do not type the unit.

Q: Entry `CCCc1nn(C)c2c(=O)[nH]c(-c3cc(S(=O)(=O)N4CC(CCCO[N+](=O)[O-])C4)ccc3OCC)nc12` : reported concentration at 0.5 h = ?
A: 22

---

- METHOD_DESCRIPTION: PK Phase (Group 2): plasma concentrations and pharmacokinetics of Compound 18 and its metabolite Compound 4 after once daily ocular instillation of Compound 18 nanosuspension for 7 days
- Assay type: in vivo, New Zealand white rabbits
- EXPERIMENTAL_SETUP: male, New Zealand white, rabbit, plasma, topical or ocular, 0.8 mg/kg, plasma, Day 7, Compound 18 0.8 mg/kg ocular instillation; animal 207666; read-out: AUC0-24
The following compounds are shown together with reported AUC(0-t) values.
The reply should read as a number followed by its unit.

{"COMPOUND": "CCCc1nn(C)c2c(=O)[nH]c(-c3cc(S(=O)(=O)N4CC(CCCO)C4)ccc3OCC)nc12 [Compound 4]", "QUANTITY": "AUC(0-t)", "VALUE_OBSERVED": "1.92 ng·h/mL"}

# evaluate next
Q: Return reported AUC(0-t); argument: CCCc1nn(C)c2c(=O)[nH]c(-c3cc(S(=O)(=O)N4CC(CCCO[N+](=O)[O-])C4)ccc3OCC)nc12 [Compound 18]
A: 1.9 ng·h/mL

---

- METHOD_DESCRIPTION: TD Phase (Groups 1 and 3): plasma and ocular tissue concentrations and pharmacokinetics of Compound 18 and its metabolite Compound 4 after once daily ocular instillation of Compound 18 nanosuspension for 7 days
- Type: in vivo, New Zealand white rabbits
- EXPERIMENTAL_SETUP: male, New Zealand white, rabbit, lens, topical, 2 mg/day, TD Phase, Group 1, 1 h, individual animals, BQL set to 0; read-out: Final Compound 18 Lens Conc.
QUANTITY: concentration at 1 h (ng/g)
Kindly answer with a numeric value in ng/g, unit omitted.

Q: Consider the compound shown here: CCCc1nn(C)c2c(=O)[nH]c(-c3cc(S(=O)(=O)N4CC(CCCO[N+](=O)[O-])C4)ccc3OCC)nc12 [Compound 18] What is its recorded concentration at 1 h?
A: 0

---

- METHOD_DESCRIPTION: PK Phase (Group 2): plasma concentrations and pharmacokinetics of Compound 18 and its metabolite Compound 4 after once daily ocular instillation of Compound 18 nanosuspension for 7 days
- Assay type: in vivo, New Zealand white rabbits
- EXPERIMENTAL_SETUP: male, New Zealand white, rabbit, plasma, other: ocular instillation, 0.8 mg/kg/day, 1 h; Mean of 4 animals, BQL set to 0; read-out: Day 1 Compound 18 Plasma Concentration
QUANTITY: concentration at 1 h
State the value with its unit after it.

Q: Reported concentration at 1 h for CCCc1nn(C)c2c(=O)[nH]c(-c3cc(S(=O)(=O)N4CC(CCCO[N+](=O)[O-])C4)ccc3OCC)nc12 [Compound 18] : what is it?
A: 0.0601 ng/mL

---

- METHOD_DESCRIPTION: PK Phase (Group 2): plasma concentrations and pharmacokinetics of Compound 18 and its metabolite Compound 4 after once daily ocular instillation of Compound 18 nanosuspension for 7 days
- Format: in vivo, New Zealand white rabbits
- EXPERIMENTAL_SETUP: male, New Zealand white, rabbit, plasma, topical or ocular, 0.8 mg/kg, plasma, Day 7, Compound 18 0.8 mg/kg ocular instillation; Mean, n=4; read-out: AUC0-24
QUANTITY: AUC(0-t) (ng·h/mL)
Response body: numeric value in ng·h/mL, unit text excluded.

{"COMPOUND": "CCCc1nn(C)c2c(=O)[nH]c(-c3cc(S(=O)(=O)N4CC(CCCO)C4)ccc3OCC)nc12 [Compound 4]", "UNIT_ABBREVIATION": "ng·h/mL", "VALUE_OBSERVED": 1.71}

Q: Reported AUC(0-t) for CCCc1nn(C)c2c(=O)[nH]c(-c3cc(S(=O)(=O)N4CC(CCCO[N+](=O)[O-])C4)ccc3OCC)nc12 [Compound 18] : what is it?
A: 0.754

---

- METHOD_DESCRIPTION: PK Phase (Group 2): plasma concentrations and pharmacokinetics of Compound 18 and its metabolite Compound 4 after once daily ocular instillation of Compound 18 nanosuspension for 7 days
- Type: in vivo, New Zealand white rabbits
- EXPERIMENTAL_SETUP: male, New Zealand white, rabbit, plasma, other: ocular instillation, 0.8 mg/kg/day, 0.5 h; Mean of 4 animals, BQL set to 0; read-out: Day 1 Compound 18 Plasma Concentration
QUANTITY: concentration at 0.5 h (ng/mL)
Only the number, expressed in ng/mL, is required.

Q: Field request: concentration at 0.5 h | item: `CCCc1nn(C)c2c(=O)[nH]c(-c3cc(S(=O)(=O)N4CC(CCCO[N+](=O)[O-])C4)ccc3OCC)nc12`
A: 0.161

---

- METHOD_DESCRIPTION: PK Phase (Group 2): plasma concentrations and pharmacokinetics of Compound 18 and its metabolite Compound 4 after once daily ocular instillation of Compound 18 nanosuspension for 7 days
- Format: in vivo, New Zealand white rabbits
- EXPERIMENTAL_SETUP: male, New Zealand white, rabbit, plasma, other: ocular instillation (eye drop), 0.821 mg/kg/day, 8 h; animal 207666; read-out: Day 7 Compound 18 Plasma Concentration
QUANTITY: concentration at 8 h (ng/mL)
Reply with just the number (in ng/mL).

Q: Look up concentration at 8 h: `CCCc1nn(C)c2c(=O)[nH]c(-c3cc(S(=O)(=O)N4CC(CCCO[N+](=O)[O-])C4)ccc3OCC)nc12`
A: 0.0611

---

- METHOD_DESCRIPTION: TD Phase (Groups 1 and 3): plasma and ocular tissue concentrations and pharmacokinetics of Compound 18 and its metabolite Compound 4 after once daily ocular instillation of Compound 18 nanosuspension for 7 days
- Format: in vivo, New Zealand white rabbits
- EXPERIMENTAL_SETUP: male, New Zealand white, rabbit, topical or ocular, 0.8 mg/kg/day; vitreous humor, Day 7, from mean concentrations
- Experimental: This example illustrates the procedures and results for the levels of Compound 18 and its metabolite Compound 4 in plasma and ocular tissues of normotensive rabbits following ocular instillation of Compound 18 once daily for 7 consecutive days. […] Plasma and tissue samples from treated animals (Groups 1-3) were analyzed for Compound 18 and its metabolite Compound 4 concentrations by LC-MS/MS. […] BA Assay: Quantitation Range 0.05 to 100 ng/mL for Compound 18, 0.15 to 100 ng/mL for Compound 4. […]
QUANTITY: half-life (h)
The answer is to be given in h; state only the numeric part.

Q: Requested read-out: half-life. Entry: CCCc1nn(C)c2c(=O)[nH]c(-c3cc(S(=O)(=O)N4CC(CCCO)C4)ccc3OCC)nc12 [Compound 4]
A: 1.72
